System: DU-145
Test: NCI tumour cell line growth inhibition, 48 h
Active and inactive are the calls of the source. Rule as the data show it: active = GI50 up to about 1.1 µM and inactive = higher.
Respond using exactly one of the listed classes: active, inactive

**Query** Answer briefly: the call reported for CCCC(=O)OC[n+]1cccc(-c2c(COC(=O)NC(C)C)c(COC(=O)NC(C)C)c3n2CCC3)c1 in this assay.
**Result** inactive

**Query** Could you please tell me the result logged for O/N=C1\CC2(N3CCOCC3)CCC1(Cc1ccccc1)CC2 in this assay?
**Result** inactive

**Query** Write down the call the test reported for this molecule. Item: N#CCCC1(CCC#N)S(=O)(=O)OCCOS1(=O)=O
**Result** inactive

**Query** Field: outcome | Entry: Cc1nn(-c2ccccc2)c(C)c1/C=N/NC(=O)c1sc(=S)n(-c2ccc(Cl)cc2)c1N
**Result** inactive

**Query** Test call, this molecule: CCc1nc(N)nc(N)c1-c1ccc2nn(-c3ccccc3)[n+]([O-])c2c1
**Result** inactive

**Query** Check the results log: what was the call for CN(C)Cc1cc(C(=O)/C=C/c2ccc(Br)cc2)cc(CN(C)C)c1O ?
**Result** inactive

**Query** Tell me the recorded outcome of this test for Cc1ccc(S(=O)(=O)N(CC(O)COc2ccccc2)c2ccc(F)cc2F)cc1 (stereo unspecified) .
**Result** inactive

**Query** Could you please tell me the result logged for CCOP(=O)(OCC)C(F)(F)c1ccc(CC(NC(=O)OC(C)(C)C)C(=O)O)cc1 (stereo unspecified) in this assay?
**Result** inactive

**Query** So what was the verdict on CC(=O)OCCCCN1C(=O)CSc2ccccc21 in this test?
**Result** inactive

**Query** What did this assay record as the result for COc1ccc(N2C(=O)C3c4[nH]c5cccc(C)c5c4C4CCC(C(C)(C)C)CC4C3C2=O)cc1 (stereo unspecified) ?
**Result** inactive

**Query** Please state the recorded outcome for this molecule: NC(=O)SCCC(N)C(=O)O (stereo unspecified)
**Result** inactive

**Query** Assay outcome for Cc1ccnc(NS(=O)(=O)c2ccc(NC(=O)c3ccc4nc5ccccc5c(Nc5ccc(S(=O)(=O)Nc6nccc(C)n6)cc5)c4c3)cc2)n1 : what was it?
**Result** inactive

**Query** Please indicate how the test categorized CC(C)=CCNc1ncnc2[nH]cnc12 .
**Result** inactive

**Query** Name the outcome recorded for C=C(C)C12OC1[C@@]1(C)C(=CC2=O)CCC(O)[C@@H]1C (stereo partly specified) in the assay.
**Result** active

**Query** Which result was noted for this molecule in the test: C[C@H]1CC(=O)[C@@]2(O)C#C/C=C\C#C[C@@H]3Nc4c(cc(O)c5c4C(=O)c4ccccc4C5=O)[C@]24O[C@]314
**Result** active

**Query** Please state the recorded outcome for this molecule: NS(=O)(=O)c1nnc(NC(=O)Nc2ccc(Cl)c(Cl)c2)s1
**Result** inactive

**Query** Kindly provide the recorded test outcome for the following molecule: OCSc1nn(CO)c(=S)s1
**Result** inactive

**Query** Dear all, I need the recorded test outcome for CN1c2ccccc2C(=O)NC12CCNCC2 , thank you.
**Result** inactive

**Query** Hey, what did the test say about NC(Cc1ccc(S(=O)(=O)O)cc1)C(=O)NC(Cc1ccc(S(=O)(=O)O)cc1)C(=O)NC(Cc1ccc(S(=O)(=O)O)cc1)C(=O)O (stereo unspecified) ?
**Result** inactive

**Query** Assay outcome for CC1CCc2sc3nc4n(c(=O)c3c2C1)CC(C)S4 (stereo unspecified) : what was it?
**Result** inactive

**Query** Dear all, I need the recorded test outcome for Cc1cccc(NC(=S)Nc2ccc([N+](=O)[O-])cc2)n1 , thank you.
**Result** inactive
